Source: ChEMBL document CHEMBL1201862

- Test system: MDA-N
- method.notes: NCI tumour cell line growth inhibition, 48 h
Calls of active or inactive are those of the source. No stated cut-off is given here; in the data, active = GI50 up to about 1.1 µM and inactive = higher.
The entries below are paired with their reported GI50.
attribute.measured: GI50

| compound | attribute.measured | measured |
| --- | --- | --- |
| C(/C=N/N=C1NCCN1)=N\N=C1NCCN1 | GI50 | > 100 µM (inactive) |
| COC(=O)NNC(c1ccc(Cl)cc1)c1ccc(Cl)cc1 | GI50 | 22.3 µM (inactive) |
| COc1ccccc1/C=C/C1=NN(c2cccc(S(=O)(=O)O)c2)C2(C1)C(Cl)C(=O)N2c1nc2ccccc2s1 (stereo unspecified) | GI50 | 85.3 µM (inactive) |
| COc1cccc(Nc2nc(NNC(=O)Cc3ccccc3)nc(NNC(=O)c3ccncc3)n2)c1 | GI50 | > 10 µM (inactive) |
| COc1cccc(-n2c(N)c(-c3nc4cc(C(F)(F)F)ccc4s3)c3ccc([N+](=O)[O-])cc3c2=O)c1 | GI50 | > 100 µM (inactive) |
| CC(C)(C)n1c(=O)[nH]c(=O)n1C(C)(C)C | GI50 | > 100 µM (inactive) |
